Tested on: OV90
protocolSummary: Primary qHTS to identify gynecologic anti-cancer compounds using libraries of approved drugs and bioactive compounds (AID 1345084); further: on the % scale 0 is the no-effect control and ±100 the full control effect; nearly all actives have a fitted effect of over 55% in size
conditionNotes: Gynecologic cancer cell panel viability, ATPlite luminescence, 48 h; series mostly up to 57.5 µM
Results filed as inconclusive are left out. Activity calls are given as the source filed them. The call rests on the fitted dose curve; in most records, active means well fitted cell-killing curve with a large enough effect; inconclusive means small, poorly fitted or top-dose-only effect, or effect the other way; inactive means flat fitted curve, though single readings scatter.
readoutType: activity change, negative = cytotoxicity

compound	readoutType	reportedValue
C=CCc1ccc(O[C@@H]2O[C@H](CO)[C@@H](O)[C@H](O)[C@H]2O)c(O[C@@H]2O[C@H](CO)[C@@H](O)[C@H](O)[C@H]2O)c1	activity change, negative = cytotoxicity	inactive
O=C(O)CCc1cccc(O)c1O[C@@H]1O[C@H](CO)[C@@H](O)[C@H](O)[C@H]1O	activity change, negative = cytotoxicity	inactive
O=C(OCC1=CC(Cl)C(O)C(OC(=O)c2ccccc2)C1O)c1ccccc1 (centres undefined)	activity change, negative = cytotoxicity	inactive
C[C@@H]1O[C@@H](O[C@H]2[C@H](O[C@H]3[C@H](O[C@H]4CC[C@@]5(C)C(CC[C@]6(C)C5CC=C5[C@@H]7CC(C)(C)C[C@@H](O)[C@]7(C)CC[C@]56C)[C@@]4(C)CO)O[C@H](C(=O)O)[C@@H](O)[C@@H]3O)O[C@H](CO)[C@H](O)[C@@H]2O)[C@H](O)[C@H](O)[C@H]1O (some centres undefined)	activity change, negative = cytotoxicity	7.08% [at 11.6 µM] (inactive)

* * *

Tested on: CAOV3
protocolSummary: Primary qHTS to identify gynecologic anti-cancer compounds using libraries of approved drugs and bioactive compounds (AID 1345084); further: on the % scale 0 is the no-effect control and ±100 the full control effect; nearly all actives have a fitted effect of over 55% in size
conditionNotes: Gynecologic cancer cell panel viability, ATPlite luminescence, 48 h; series mostly up to 57.5 µM
Results filed as inconclusive are left out. Active and inactive are the calls of the source. Calls follow the shape of the dose curve; as a rule, active = well fitted cell-killing curve with a large enough effect; inconclusive = small, poorly fitted or top-dose-only effect, or effect the other way; inactive = flat fitted curve, though single readings scatter.
readoutType: activity change, negative = cytotoxicity

// below: answered compounds
compound	measuredOn	activity change, negative = cytotoxicity
CC1(C)C[C@H](O)C[C@@]2(C)[C@H]1[C@H](O)C=C1COC(=O)[C@@]12O	CAOV3	inactive
C[C@@H]1O[C@@H](O[C@H]2[C@@H]3C=CO[C@@H](O[C@@H]4O[C@H](CO)[C@@H](O)[C@H](O)[C@H]4O)[C@@H]3[C@@]3(CO)O[C@@H]23)[C@H](OC(=O)/C=C/c2ccc(O)cc2)[C@H](O)[C@H]1O	CAOV3	inactive
CC(C)=CCc1cc(O[C@@H]2O[C@H](CO[C@@H]3OC[C@](O)(CO)[C@H]3O)[C@@H](O)[C@H](O)[C@H]2O)ccc1O	CAOV3	inactive
CC1=CC2=C(C)C(=O)C(C)(O)C(O)C2CO1 (configuration not stated)	CAOV3	inactive
CCCCOc1nc(N)c2c(n1)N(Cc1cccc(CN3CCCC3)c1)CC(=O)N2	CAOV3	inactive

Request: Given the compound O=C(OC[C@H]1O[C@@H](Oc2ccccc2COC(=O)C2(O)C=CCCC2O)[C@H](O)[C@@H](O)[C@@H]1O)c1ccccc1 (some centres not stated) , what is its reported activity change, negative = cytotoxicity?
Result: inactive

Request: Given the compound COC(=O)C1=CO[C@@H](O[C@@H]2O[C@H](CO[C@@H]3O[C@H](CO)[C@@H](O)[C@H](O)[C@H]3O)[C@@H](O)[C@H](O)[C@H]2O)[C@@H]2C(CO)=CC[C@H]12 , what is its reported activity change, negative = cytotoxicity?
Result: inactive

FYI, the data here is from PubChem BioAssay (NCATS).
